Listed below: IC50 values for each entry.
biological target: human capsaicin receptor (Homo sapiens, UniProt Q8NER1); construct: pBK-CMV expression construct encoding the full length human capsaicin receptor; expressed in transfected cells; test: Calcium mobilization assay, determination of antagonist activity (Example 6); type: cell-based; settings: determined as described in Example 6 (calcium mobilization, antagonist activity); Table II
Sequence (Q8NER1 whole entry): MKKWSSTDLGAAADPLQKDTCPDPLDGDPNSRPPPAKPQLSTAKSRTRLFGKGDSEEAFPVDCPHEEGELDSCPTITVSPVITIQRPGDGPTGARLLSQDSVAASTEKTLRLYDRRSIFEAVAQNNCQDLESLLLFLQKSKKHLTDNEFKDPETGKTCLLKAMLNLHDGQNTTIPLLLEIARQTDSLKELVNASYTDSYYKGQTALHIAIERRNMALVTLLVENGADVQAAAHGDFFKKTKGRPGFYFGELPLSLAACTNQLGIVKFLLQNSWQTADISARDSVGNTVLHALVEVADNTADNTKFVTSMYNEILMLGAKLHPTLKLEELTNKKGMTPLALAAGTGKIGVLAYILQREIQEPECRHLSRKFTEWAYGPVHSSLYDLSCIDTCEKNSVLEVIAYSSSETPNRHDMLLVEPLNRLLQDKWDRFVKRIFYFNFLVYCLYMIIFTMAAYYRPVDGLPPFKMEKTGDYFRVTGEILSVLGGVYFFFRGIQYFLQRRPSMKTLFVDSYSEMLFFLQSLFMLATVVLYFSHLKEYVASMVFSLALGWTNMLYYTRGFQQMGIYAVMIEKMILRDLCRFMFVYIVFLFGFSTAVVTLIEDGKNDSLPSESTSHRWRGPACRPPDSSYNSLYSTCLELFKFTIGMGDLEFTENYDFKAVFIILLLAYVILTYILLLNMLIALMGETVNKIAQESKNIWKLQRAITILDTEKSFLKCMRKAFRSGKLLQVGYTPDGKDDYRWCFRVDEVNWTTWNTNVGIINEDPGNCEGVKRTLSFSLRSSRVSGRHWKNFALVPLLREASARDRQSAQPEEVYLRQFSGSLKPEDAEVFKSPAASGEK

Before answering, review these 3 worked examples.
>  <Compound>
Cc1cccnc1N1CCN(c2cc(-c3ccc(F)c(Cl)c3)nc(N3CCOCC3)n2)CC1=O

>  <Observed property>
IC50

>  <Reported result>
≤ 1000 nM

$$$$
>  <Compound>
Cc1cc(-c2cc(N3CCN(c4ncccc4C(F)(F)F)CC3)nc(N3CCN(C(=O)OC(C)(C)C)CC3)n2)ccc1F

>  <Observed property>
IC50

>  <Reported result>
≤ 1000 nM

$$$$
>  <Compound>
C[C@@H]1CN(c2ncccc2Cl)CCN1c1cc(-c2ccc(F)c(F)c2)nc(N2CCCC2)n1

>  <Observed property>
IC50

>  <Reported result>
≤ 1000 nM

$$$$

Request: Recorded IC50 for "CNc1nc(-c2ccc(F)c(Cl)c2)cc(N2CCN(c3ncccc3C(F)(F)F)CC2)n1" , please?
Result: ≤ 1000 nM

Request: Any idea what IC50 was measured for "CCCN1CCN(c2nc(-c3ccc(F)c(C)c3)cc(N3CCN(c4ncccc4C(F)(F)F)CC3)n2)CC1" ?
Result: ≤ 1000 nM

Request: Look up IC50 for this compound: "C[C@@H]1CN(c2ncccc2Cl)CCN1c1cc(-c2ccc(F)c(Cl)c2)nc(N2CCOC(C)(C)C2)n1"
Result: ≤ 1000 nM

Request: Requested field: IC50. Item: CC1CCCN1c1nc(-c2ccc(F)c(F)c2)cc(N2CCN(c3ncccc3F)CC2)n1 (stereo not drawn)
Result: ≤ 1000 nM

Request: # IC50 lookup, item "CNC(=O)C1CCN(c2nc(-c3ccc(F)c(Cl)c3)cc(N3CCN(c4ncccc4C(F)(F)F)CC3)n2)CC1"
Result: ≤ 1000 nM

Request: For the compound shown here, CC1CCCN1c1nc(-c2ccc(F)cc2)cc(N2CCN(c3ncccc3F)CC2)n1 (stereo not drawn) , give the reported IC50.
Result: ≤ 1000 nM

Request: For the compound "CC(C)n1ccnc1-c1nc(-c2ccc(F)c(Cl)c2)cc(N2CCN(c3ncccc3C(F)(F)F)CC2)n1" , what IC50 is on record?
Result: ≤ 1000 nM

Request: Quick one: IC50 of Cc1cc(-c2cc(N3CCN(c4ncccc4C(F)(F)F)CC3)nc(N3CCNC(C)C3)n2)ccc1F (stereo not drawn) ?
Result: ≤ 1000 nM

Request: Entry under review: "C[C@@H]1CN(c2ncccc2Cl)CCN1c1cc(-c2ccc(F)c(Cl)c2)nc(SCc2ccccc2)n1" . Reported IC50?
Result: ≤ 1000 nM

Request: Name the reported IC50 value associated with the compound CC1CCCN1c1nc(-c2ccc(F)c(Cl)c2)cc(N2CCN(c3ncccc3F)CC2)n1 (stereo not drawn)
Result: ≤ 1000 nM

Request: GET /values?readout=IC50&item= "Cc1cc(-c2cc(N3CCN(c4ncccc4C(F)(F)F)CC3)nc(N(C(C)C)S(=O)(=O)C(C)C)n2)ccc1F"
Result: ≤ 1000 nM

Request: Reported IC50 for "CC(=O)N1CCN(c2nc(-c3ccc(F)c(Cl)c3)cc(N3CCN(c4ncccc4C(F)(F)F)CC3)n2)CC1" : what is it?
Result: ≤ 1000 nM
